- assay info: NCI Yeast Anticancer Drug Screen. Data for the mlh1 rad18 strain (AID 175)
- applied conditions: S. cerevisiae mlh1 rad18 strain growth inhibition; at 50.0 µM; hits give high values
About 79,000 compounds went through this panel and 15% of them were active in at least one assay; those are over-represented in the sample as a whole. Calls of active or inactive are those of the source. Cut-off read from the data, not from the text of the source: active = growth inhibition above about 70%; inactive = the rest.
measured attribute: growth inhibition

The following compounds have reported results that may help.
CCOC(=O)CCC(NC(=O)c1ccc(Nc2nc3ccccc3nc2C(=O)OCC)cc1)C(=O)OCC (configuration not stated)
19.1% (inactive)
CC(C)C(=NNC(N)=O)C(C)C
-8.4% (inactive)
O=C(CSc1nc2[nH]ncc2c(=O)[nH]1)c1ccc(Cl)cc1
-34.2% (inactive)

Input: For the compound shown here, CN(C)c1ccc(/C(=N\O)C(=O)O)cc1 , give the reported growth inhibition.
Output: 1.55% (inactive)

Input: For the compound shown here, CN(C)CCCc1c2ccccc2nc2ccc(Cl)cc12 , give the reported growth inhibition.
Output: 26.5% (inactive)

Input: For the compound shown here, CCOC(=O)/C=C\C(=O)O.[Mn] , give the reported growth inhibition.
Output: -33.5% (inactive)

Input: For the compound shown here, Cc1cc(C(F)(F)F)nc2nc3ccccc3n12 , give the reported growth inhibition.
Output: 6.2% (inactive)

Input: For the compound shown here, COC(=O)C1(C)C(=O)NC(=O)CC1C (configuration not stated) , give the reported growth inhibition.
Output: -3.2% (inactive)

Input: For the compound shown here, O=C(O)/C=C/C(O)C1CCCCC1 (configuration not stated) , give the reported growth inhibition.
Output: -4.65% (inactive)

Input: For the compound shown here, Cc1cc2c(c(S(=O)(=O)c3ccccc3[N+](=O)[O-])c1)NCCC2 , give the reported growth inhibition.
Output: -15.8% (inactive)

Input: For the compound shown here, O=C1CCCC2=C1C(c1ccccc1)/C(=N/O)O2 (configuration not stated) , give the reported growth inhibition.
Output: 16.1% (inactive)

Input: For the compound shown here, CCOC(=O)c1c(N)sc2c1C(C(=O)OCC)CCCC2 (configuration not stated) , give the reported growth inhibition.
Output: 38.2% (inactive)
